test: Compound solubility in water; conditions: water, Compound Solubility in Water, in water
Decide using solubility: a value greater than or equal to 2 µg/mL is Y, a smaller one is N.

Study these solved cases before continuing.
| compound | qualitativeLabel |
| --- | --- |
| Cc1ccnc2c(C(=O)NC3(C)CCOc4c(F)cccc43)ccn12 (stereo not drawn) [III-258] | Y |
| Cc1cc(C)n2ccc(C(=O)NC3Cc4ccccc4C3)c2n1 [III-215] | N |
| Cc1cc(C)n2ccc(C(=O)NC3CCOc4c(F)cccc43)c2n1 (stereo not drawn) [III-224] | N |
| Cc1cc(C)n2ccc(C(=O)Nc3cccc4c3CCC4)c2n1 [III-220] | N |
| CC[C@@H](C)O[C@H]1CC[C@H](NC(=O)c2ccn3c(C)cc(C)nc23)CC1 [III-241] | Y |
| Cc1cc(C)n2ccc(C(=O)NC3COCc4ccccc43)c2n1 (stereo not drawn) [III-210] | Y |
| Cc1cc(C)n2ccc(C(=O)NC3Cc4ccc(-c5ncco5)cc4C3)c2n1 (stereo not drawn) [III-242] | N |
| Cc1ccnc2c(C(=O)NC(C)(C)c3ccccc3)ccn12 [III-259] | Y |

## Input Test whether the compound Cc1cc(C)n2ccc(C(=O)N[C@H]3CCc4ccccc43)c2n1 [III-217] records solubility of 2 µg/mL or higher.
## Output N

* * *

target: glucocerebrosidase (Gcase) (Homo sapiens, UniProt P04062); construct: micellar solution containing 10 nM GCase and 100 nM saposin C; assay: Glucocerebrosidase (Gcase) activation assay, 4-methylumbelliferyl-beta-D-glucopyranoside substrate, fluorescence readout; assay type: biochemical; details: test compound at 1.0 μM; read-out: Percent Gcase Activation, 1 μM Test Compound
Sequence (P04062 40-536): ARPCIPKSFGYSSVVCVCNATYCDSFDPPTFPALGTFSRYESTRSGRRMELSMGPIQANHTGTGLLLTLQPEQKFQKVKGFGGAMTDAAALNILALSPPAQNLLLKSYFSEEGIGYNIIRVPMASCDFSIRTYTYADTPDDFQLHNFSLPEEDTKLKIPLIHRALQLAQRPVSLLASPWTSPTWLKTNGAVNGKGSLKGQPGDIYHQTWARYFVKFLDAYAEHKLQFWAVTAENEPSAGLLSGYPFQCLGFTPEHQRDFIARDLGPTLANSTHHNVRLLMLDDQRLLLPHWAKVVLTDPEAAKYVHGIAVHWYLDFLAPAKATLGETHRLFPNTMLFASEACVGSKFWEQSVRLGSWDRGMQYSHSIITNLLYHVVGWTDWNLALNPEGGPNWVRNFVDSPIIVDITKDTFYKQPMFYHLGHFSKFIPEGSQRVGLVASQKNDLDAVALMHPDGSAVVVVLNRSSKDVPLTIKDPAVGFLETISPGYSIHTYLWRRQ
Provide the recorded activation at 1 µM for the entries that follow.

Example results:
| compound | readoutName | result |
| --- | --- | --- |
| COCCOCc1cc(C)n2ccc(C(=O)N[C@H]3CCCc4ccccc43)c2n1 [III-43] | activation at 1 µM | > 60% |
| Cc1cc(Cl)nc2c(C(=O)Nc3ccc(-c4cocn4)cc3)ccn12 [III-38] | activation at 1 µM | 30 to 60% |
| COc1cc(-c2cnco2)ccc1NC(=O)c1ccn2c(C)cc(C)nc12 [III-110] | activation at 1 µM | > 60% |
| Cc1ccnc2c(C(=O)N[C@H](C)c3ccc(F)cc3)ccn12 [III-261] | activation at 1 µM | 30 to 60% |
| CO[C@H]1CC[C@H](C(C)(C)NC(=O)c2ccn3c(C)cc(C)nc23)CC1 [III-236] | activation at 1 µM | > 60% |
| C#Cc1ccc(NC(=O)c2ccn3c(C)cc(C)nc23)c(OC)c1 [III-129] | activation at 1 µM | > 60% |
| Cc1cc(C)n2ccc(C(=O)NC3CC4CCC(C3)N4CC(F)(F)F)c2n1 (centres unmarked) [III-128] | activation at 1 µM | < 30% |
| Cc1cc(C)n2ccc(C(=O)NC3CCCc4ccccc43)c2n1 (centres unmarked) [III-167] | activation at 1 µM | > 60% |
| Cc1cc(O)n2ccc(C(=O)Nc3ccc(-c4cocn4)cc3)c2n1 [III-55] | activation at 1 µM | < 30% |
| Cc1cc(C)n2ccc(C(=O)NC3c4ccccc4C4CC3C4)c2n1 (centres unmarked) [III-136] | activation at 1 µM | > 60% |

Please give activation at 1 µM, item by item, for the list that follows.
1. CNc1cc(C)n2ccc(C(=O)NC3c4ccccc4C4CC3C4)c2n1 (centres unmarked) [III-70]
2. Cc1cc(C)n2ccc(C(=O)NC3CCCc4cnccc43)c2n1 (centres unmarked) [III-151]
3. COCc1cc(COC)n2ccc(C(=O)NC3(C)CCOc4cc(F)c(F)cc43)c2n1 (centres unmarked) [III-155]
4. Cc1cc(C)n2ccc(C(=O)NC3CC4CCC(C3)O4)c2n1 (centres unmarked) [III-169]
5. Cc1cc(C)n2ccc(C(=O)NC34CCC(CC3)c3ccccc34)c2n1 [III-126]
6. Cc1cc(C)n2ccc(C(=O)N[C@@H](C)c3ccccc3F)c2n1 [III-77]

## Output
> 60%
< 30%
> 60%
< 30%
> 60%
> 60%

Field: activation at 1 µM. Fill in for each record below.
1. COC1CCc2ccc(NC(=O)c3ccn4c(C)cc(C)nc34)cc21 (centres unmarked) [III-119]
2. Cc1cc(C)n2ccc(C(=O)Nc3ccc4c(c3)C(O)CC4)c2n1 (centres unmarked) [III-222]
3. COc1cc(C)n2ccc(C(=O)Nc3ccc(-c4cocn4)cc3)c2n1 [III-52]
4. CCCCO[C@H]1CC[C@H](NC(=O)c2ccn3c(COC)cc(CCC)nc23)CC1 [III-269]
5. CNCCCCOc1ccc(NC(=O)c2ccn3c(C)cc(C)nc23)cc1 [III-20]
6. Cc1cc(C)n2ccc(C(=O)N[C@@H](C)c3ccc(F)cc3)c2n1 [III-78]
7. Cc1cc(C)n2ccc(C(=O)NC3CC=C(c4ncco4)CC3)c2n1 (centres unmarked) [III-247]

## Output
["> 60%", "< 30%", "30 to 60%", "> 60%", "< 30%", "> 60%", "30 to 60%"]

Parameter requested: activation at 1 µM. Apply to each item below.
1. Cc1ccnc2c(C(=O)NC3(C)CCOc4ccc(F)cc43)ccn12 (centres unmarked) [III-264]
2. Cc1cc(C)n2ccc(C(=O)NC3(C)CCOc4c(F)cccc43)c2n1 (centres unmarked) [III-133]

## Output
> 60%
> 60%

For each listed entry, give its activation at 1 µM.
1. C#Cc1cccc(C(C)(C)NC(=O)c2ccn3c(C)cc(COC)nc23)c1 [III-64]
2. CC[C@H](NC(=O)c1ccn2c(C)cc(C)nc12)c1ccccc1 [III-164]
3. Cc1cc(C)n2ccc(C(=O)N[C@H]3CC[C@H](OC4CCCC4)CC3)c2n1 [III-132]
4. C#Cc1cccc(C(C)(C)NC(=O)c2ccn3c(COC)cc(COC)nc23)c1 [III-157]
5. Cc1ccnc2c(C(=O)NC3(C)CCOc4ccccc43)ccn12 (centres unmarked) [III-257]

## Output
1: > 60%; 2: > 60%; 3: > 60%; 4: > 60%; 5: > 60%

Here are 6 compounds. What values of activation at 1 µM were reported for them?
1. CCCCO[C@H]1CC[C@H](NC(=O)c2ccn3c(C)cc(Cl)nc23)CC1 [III-65]
2. Cc1cc(C)n2ccc(C(=O)Nc3ccc(Cl)c(COc4cccnc4)c3)c2n1 [III-15]
3. Cc1cc(C)n2ccc(C(=O)Nc3ccc4c(c3)OCO4)c2n1 [III-16]
4. CCCCO[C@H]1CC[C@H](NC(=O)c2ccn3c(COC)cc(C(F)F)nc23)CC1 [III-34]
5. Cc1cc(C)n2ccc(C(=O)Nc3ccc(C4=NCCO4)cc3Cl)c2n1 [III-219]
6. CCCCCOC1CCC(NC(=O)c2ccn3c(C)cc(C)nc23)C1 (centres unmarked) [III-176]

## Output
1. > 60%
2. > 60%
3. > 60%
4. > 60%
5. > 60%
6. > 60%

List reported activation at 1 µM for each of these compounds:
1. CC(C)c1ccnc2c(C(=O)N[C@H]3CCCc4ccccc43)ccn12 [III-162]
2. Cc1cc(C)n2ccc(C(=O)NC3CCCc4cccnc43)c2n1 (centres unmarked) [III-193]

## Output
> 60%
< 30%
